Attribution: ChEMBL document CHEMBL1142024

Molecular target: UniProt P17712
Sequence (P17712 whole entry): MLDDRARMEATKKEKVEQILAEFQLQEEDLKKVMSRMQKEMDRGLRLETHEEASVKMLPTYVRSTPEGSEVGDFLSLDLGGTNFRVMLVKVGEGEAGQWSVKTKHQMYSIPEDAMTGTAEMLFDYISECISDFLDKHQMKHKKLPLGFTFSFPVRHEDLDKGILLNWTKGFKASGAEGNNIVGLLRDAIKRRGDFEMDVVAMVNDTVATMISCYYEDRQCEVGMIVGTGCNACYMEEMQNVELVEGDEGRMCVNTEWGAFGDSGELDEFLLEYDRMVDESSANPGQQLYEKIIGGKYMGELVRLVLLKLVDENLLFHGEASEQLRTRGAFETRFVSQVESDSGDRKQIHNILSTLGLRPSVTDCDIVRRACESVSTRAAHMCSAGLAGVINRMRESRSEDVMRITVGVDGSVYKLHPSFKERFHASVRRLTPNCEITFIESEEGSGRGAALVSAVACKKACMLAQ
Assay: Effective concentration for glucokinase activation with 5 mM glucose
Format: functional
Consider the following compounds and their measured EC50 readings.
Please respond with the number in nM and leave the unit unwritten.

N#Cc1ccc(N(CC2CCCC2)C(=O)Nc2ncc(Cl)s2)cc1    2400
COc1ccc(N(CC2CCCC2)C(=O)Nc2ncc(Br)s2)cn1    2000

Then there is this compound:
The compound identified as `O=C(Nc1ncc(Cl)s1)N(CC1CCCC1)c1ccc(Br)c(F)c1` registered its EC50 at 700
